B1: Azoarcus group I ribozyme (parent)
chain: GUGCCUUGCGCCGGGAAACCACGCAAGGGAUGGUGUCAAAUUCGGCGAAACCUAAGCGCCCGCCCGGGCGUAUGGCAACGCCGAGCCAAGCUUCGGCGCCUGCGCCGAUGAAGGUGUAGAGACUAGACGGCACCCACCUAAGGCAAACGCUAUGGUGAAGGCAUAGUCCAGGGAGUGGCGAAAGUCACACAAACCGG

Variants of: B1
ASSAY_TEXT: reverse-splicing fitness (ratio to wild type); higher = more active; in vitro selection; Mg2+ level not given
ENDPOINT_LABEL: reverse-splicing fitness
Could you keep your reply to the number by itself?

| VARIANT_NAME | reverse-splicing fitness |
| --- | --- |
| C82G A111C A145G C150A | 0.0364 |

The recorded reverse-splicing fitness for A111U A120G A145G C150G C169U U176G is 0.00728

Kindly note the recorded reverse-splicing fitness for A120U A145G C150A C169U U176G , which is 0.00424

The recorded reverse-splicing fitness for entry C82A A111U A120U A145U C150A U176C equals 0.00625

// reverse-splicing fitness lookup, variant = C82G A111C A145C C150G C169G U176C , result: 0.0101
